Entry source: the supplement of paper PMC6555819

Test system: PXR:RXRa (NR concentration 270 nM, RXRa partner concentration 90 nM)
assay details: PBM binding z-score (relative to random genomic background probes); higher = stronger binding; sequences stand for … in GC…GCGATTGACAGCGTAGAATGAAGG
metric name: PBM binding z-score

INSERT INTO assay_data (sequence_text, metric_name, number) VALUES
  ('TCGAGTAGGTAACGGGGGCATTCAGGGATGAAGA', 'PBM binding z-score', 2.44),
  ('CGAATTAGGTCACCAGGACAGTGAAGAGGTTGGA', 'PBM binding z-score', 1.78),
  ('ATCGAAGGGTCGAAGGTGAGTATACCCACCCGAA', 'PBM binding z-score', 1.64),
  ('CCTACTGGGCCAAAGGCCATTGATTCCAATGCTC', 'PBM binding z-score', -0.131),
  ('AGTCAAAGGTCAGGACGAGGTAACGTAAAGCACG', 'PBM binding z-score', 4.9),
  ('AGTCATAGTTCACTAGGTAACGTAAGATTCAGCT', 'PBM binding z-score', 1.17),
  ('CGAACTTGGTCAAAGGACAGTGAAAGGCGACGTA', 'PBM binding z-score', -0.152),
  ('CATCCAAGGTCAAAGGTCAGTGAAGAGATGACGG', 'PBM binding z-score', 7.36),
  ('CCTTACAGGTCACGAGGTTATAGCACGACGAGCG', 'PBM binding z-score', 4.58),
  ('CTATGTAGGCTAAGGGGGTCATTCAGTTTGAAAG', 'PBM binding z-score', 5.12),
  ('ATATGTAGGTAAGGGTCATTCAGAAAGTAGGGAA', 'PBM binding z-score', 3.78),
  ('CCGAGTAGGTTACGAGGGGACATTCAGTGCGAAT', 'PBM binding z-score', 2.82),
  ('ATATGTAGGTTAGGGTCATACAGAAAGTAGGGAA', 'PBM binding z-score', 4.21),
  ('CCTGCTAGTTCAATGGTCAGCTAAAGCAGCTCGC', 'PBM binding z-score', 0.465),
  ('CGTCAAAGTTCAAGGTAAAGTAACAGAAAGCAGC', 'PBM binding z-score', 3.99),
  ('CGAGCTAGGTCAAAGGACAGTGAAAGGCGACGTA', 'PBM binding z-score', 1.01),
  ('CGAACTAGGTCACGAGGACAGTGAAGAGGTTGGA', 'PBM binding z-score', 1.87),
  ('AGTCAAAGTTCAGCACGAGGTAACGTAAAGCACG', 'PBM binding z-score', 3.35),
  ('CAAACTAGGTCACCGGAAGGTCAAAGTTCGCATG', 'PBM binding z-score', 6.49),
  ('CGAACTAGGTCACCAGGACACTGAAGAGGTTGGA', 'PBM binding z-score', 2.02),
  ('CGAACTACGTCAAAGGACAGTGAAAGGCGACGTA', 'PBM binding z-score', -0.445),
  ('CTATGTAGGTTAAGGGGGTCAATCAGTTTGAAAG', 'PBM binding z-score', 5.16),
  ('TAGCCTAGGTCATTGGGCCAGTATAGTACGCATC', 'PBM binding z-score', 1.58);

###

Each entry below carries its recorded PBM binding z-score.
System: PPARg:RXRa 90nM:30nM, anti-RXR (NR concentration 90 nM, RXRa partner concentration 30 nM)
assay details: PBM binding z-score (relative to random genomic background probes); higher = stronger binding; sequences stand for … in GC…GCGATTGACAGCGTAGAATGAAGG
metric name: PBM binding z-score

INSERT INTO assay_data (sequence_text, metric_name, number) VALUES
  ('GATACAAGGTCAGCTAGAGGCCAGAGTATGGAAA', 'PBM binding z-score', 2.18),
  ('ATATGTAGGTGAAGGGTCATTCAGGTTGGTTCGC', 'PBM binding z-score', 12.7),
  ('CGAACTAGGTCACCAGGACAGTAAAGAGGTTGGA', 'PBM binding z-score', 6.51),
  ('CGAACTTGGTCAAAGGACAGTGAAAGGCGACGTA', 'PBM binding z-score', 4.07),
  ('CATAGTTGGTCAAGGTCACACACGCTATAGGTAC', 'PBM binding z-score', 3.28),
  ('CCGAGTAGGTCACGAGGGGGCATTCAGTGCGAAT', 'PBM binding z-score', 6.72),
  ('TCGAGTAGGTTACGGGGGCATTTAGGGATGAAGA', 'PBM binding z-score', 4.66),
  ('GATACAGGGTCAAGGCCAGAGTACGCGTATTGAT', 'PBM binding z-score', 4.11),
  ('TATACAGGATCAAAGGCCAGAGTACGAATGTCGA', 'PBM binding z-score', 2.92),
  ('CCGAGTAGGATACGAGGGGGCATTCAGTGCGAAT', 'PBM binding z-score', 1.08),
  ('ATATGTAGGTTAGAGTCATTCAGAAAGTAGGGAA', 'PBM binding z-score', 3.08);

###

Known PBM binding z-score of a selection of sequences
System: LXRa:RXRa (NR concentration 270 nM, RXRa partner concentration 90 nM)
assay details: PBM binding z-score (relative to random genomic background probes); higher = stronger binding; sequences stand for … in GC…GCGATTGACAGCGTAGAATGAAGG
metric name: PBM binding z-score

INSERT INTO measurements (sequence_text, result) VALUES
  ('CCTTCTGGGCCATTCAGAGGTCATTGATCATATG', 4.26),
  ('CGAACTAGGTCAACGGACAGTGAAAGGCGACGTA', 2.16),
  ('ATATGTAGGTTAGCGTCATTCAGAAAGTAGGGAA', 0.529),
  ('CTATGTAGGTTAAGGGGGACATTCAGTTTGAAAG', 1.63),
  ('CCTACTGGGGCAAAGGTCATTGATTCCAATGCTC', 5.21);

###

Test system: RARb:RXRa (NR concentration 270 nM, RXRa partner concentration 90 nM)
assay details: PBM binding z-score (relative to random genomic background probes); higher = stronger binding; sequences stand for … in GC…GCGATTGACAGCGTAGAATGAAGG
metric name: PBM binding z-score

INSERT INTO results (sequence_text, metric_name, result) VALUES
  ('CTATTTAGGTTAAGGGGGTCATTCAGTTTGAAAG', 'PBM binding z-score', 3.71),
  ('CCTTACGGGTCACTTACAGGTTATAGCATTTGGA', 'PBM binding z-score', 3.65),
  ('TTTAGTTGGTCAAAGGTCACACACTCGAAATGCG', 'PBM binding z-score', 5.17),
  ('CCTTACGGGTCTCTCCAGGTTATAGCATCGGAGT', 'PBM binding z-score', 0.15);

###

Test system: PPARg homodimer (NR concentration 180 nM)
assay details: PBM binding z-score (relative to random genomic background probes); higher = stronger binding; sequences stand for … in GC…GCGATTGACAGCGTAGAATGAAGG
Note to self: values exactly at 3 are criterion met. So PBM binding z-score at or above 3 is criterion met, below is criterion not met.

INSERT INTO assay_data (sequence_text, class) VALUES
  ('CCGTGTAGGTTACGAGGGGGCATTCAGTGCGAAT', 'criterion not met'),
  ('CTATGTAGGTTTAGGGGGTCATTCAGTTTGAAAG', 'criterion met'),
  ('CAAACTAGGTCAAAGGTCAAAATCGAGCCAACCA', 'criterion met'),
  ('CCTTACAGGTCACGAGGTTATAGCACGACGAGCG', 'criterion met'),
  ('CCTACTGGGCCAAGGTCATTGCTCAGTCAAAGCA', 'criterion not met'),
  ('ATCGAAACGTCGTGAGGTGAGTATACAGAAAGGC', 'criterion not met');

###

Test system: PPARg homodimer (NR concentration 180 nM)
assay details: PBM binding z-score (relative to random genomic background probes); higher = stronger binding; sequences stand for … in GC…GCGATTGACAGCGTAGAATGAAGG
Values of PBM binding z-score greater than or equal to 2 map to criterion met; values below map to criterion not met.

INSERT INTO results (sequence_text, class) VALUES
  ('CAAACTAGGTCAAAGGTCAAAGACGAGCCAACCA', 'criterion met'),
  ('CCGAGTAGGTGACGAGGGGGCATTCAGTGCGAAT', 'criterion not met'),
  ('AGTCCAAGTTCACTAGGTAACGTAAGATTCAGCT', 'criterion not met'),
  ('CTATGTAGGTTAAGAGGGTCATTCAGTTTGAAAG', 'criterion met'),
  ('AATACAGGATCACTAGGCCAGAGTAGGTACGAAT', 'criterion not met'),
  ('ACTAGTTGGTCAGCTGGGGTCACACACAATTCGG', 'criterion met'),
  ('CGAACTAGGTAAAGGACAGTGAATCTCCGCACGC', 'criterion not met'),
  ('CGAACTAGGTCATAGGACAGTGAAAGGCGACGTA', 'criterion not met'),
  ('CAAACTAGGTCACAGAGGTCGAAGTCCGTGCGTA', 'criterion met'),
  ('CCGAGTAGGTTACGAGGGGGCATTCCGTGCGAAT', 'criterion not met'),
  ('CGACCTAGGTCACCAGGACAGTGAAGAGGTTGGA', 'criterion not met'),
  ('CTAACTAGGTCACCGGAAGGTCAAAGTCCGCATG', 'criterion met'),
  ('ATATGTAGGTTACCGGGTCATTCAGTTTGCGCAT', 'criterion met'),
  ('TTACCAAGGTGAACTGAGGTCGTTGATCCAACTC', 'criterion not met'),
  ('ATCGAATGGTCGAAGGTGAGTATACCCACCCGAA', 'criterion not met'),
  ('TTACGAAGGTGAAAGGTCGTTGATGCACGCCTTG', 'criterion not met'),
  ('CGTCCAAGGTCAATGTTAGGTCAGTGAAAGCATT', 'criterion met'),
  ('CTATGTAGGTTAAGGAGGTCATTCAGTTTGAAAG', 'criterion met'),
  ('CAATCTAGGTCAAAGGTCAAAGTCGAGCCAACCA', 'criterion met');
